Give measured Relative cAMP EC50 for each item. Keep answers brief.
# testedOn: human glucagon receptor (human) (UniProt P47871)
# Sequence (P47871 26-477): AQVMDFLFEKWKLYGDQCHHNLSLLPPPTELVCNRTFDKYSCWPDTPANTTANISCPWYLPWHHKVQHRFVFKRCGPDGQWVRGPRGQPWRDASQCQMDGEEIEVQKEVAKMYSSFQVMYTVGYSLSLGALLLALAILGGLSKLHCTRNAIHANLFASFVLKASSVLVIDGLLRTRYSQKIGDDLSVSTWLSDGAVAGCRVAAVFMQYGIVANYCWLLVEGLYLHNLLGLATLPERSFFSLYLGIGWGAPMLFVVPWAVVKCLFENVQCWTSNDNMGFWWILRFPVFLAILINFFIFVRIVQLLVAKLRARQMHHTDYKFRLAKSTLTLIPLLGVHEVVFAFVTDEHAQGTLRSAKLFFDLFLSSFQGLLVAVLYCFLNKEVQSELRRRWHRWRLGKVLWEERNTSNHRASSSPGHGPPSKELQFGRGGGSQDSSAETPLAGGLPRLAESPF
# procedureSummary: cell-based or functional assay
Starred links: 1 amine or outer side, 2 acyl side, 3 side chain; linkers in the order of their positions; H or OH if unused. Non-standard residues stand in square brackets, D forms with d. Groups on a side chain read outwards from the residue. No end group written: not given here. *: point of attachment. C20 diacid = O=C(O)CCCCCCCCCCCCCCCCCCC(=O)*; αMePhe(2-F) = C[C@](N)(Cc1ccccc1F)C(=O)O; γGlu = O=C(O)[C@H](CCC(=O)[*:2])N[*:1]; αMeL = CC(C)C[C@](C)(N)C(=O)O; Orn = NCCC[C@H](N)C(=O)O; AEEA = NCCOCCOCC(=O)O; Aib = CC(C)(N)C(=O)O

The cases that follow already have their Relative cAMP EC50 on record.
| binder | Relative cAMP EC50 |
| --- | --- |
| YXQGTXTSDXXIXLDXKAAXEFIEXLIEGGPSSGAPPPSGX (C-terminal γGlu; C-terminal amide; synthetic construct; SITE 2: note = 2-Aminoisobutyric Acid; SITE 6: note = alpha-methyl-2-fluoro-L-phenylalanine; SITE 10: note = 3-(4-Pyridyl)-L-alanine; SITE 11: note = alpha-methyl-L-serine; SITE 13: note = alpha-methyl-leucine; SITE 16: note = L-ornithine; SITE 17: note = Lysine is chemically mo) [Example 722] | 1.71 nM |
| YXQGTFTSDXSXXLDKKAQXAFIEXLIEXGPSSGEPPPSGSE (Aib, 4Pal, Me4Pal, Orn, alpha-methyl-Leu, lipidated Lys, amide; synthetic construct; SITE 2: note = 2-Aminoisobutyric Acid; SITE 10: note = 3-(4-Pyridyl)-L-alanine; SITE 12: note = L-ornithine; SITE 13: note = alpha-methyl-leucine; SITE 17: note = Lysine is chemically modified through conjugation of the epsilon-amino group of the Lysine side chain with (gamma-Gl)) [Example 990] | 2.47 nM |
| YXQGTFTSDXXQXLDXKAQXQFIQXLLEXGPSSGAPPPSGGGE (not fully specified; non-natural residues (Aib, 4Pal, αMeS, Iva, αMeY); lipidated K; amide; synthetic construct; SITE 2: note = 2-Aminoisobutyric Acid; SITE 10: note = 3-(4-Pyridyl)-L-alanine; SITE 11: note = alpha-methyl-L-serine; SITE 13: note = alpha-methyl-leucine; SITE 16: note = L-ornithine; SITE 17: note = Lysine is chemically modified through conjugation of the epsilon-amino group) [Example 1139] | 5.29 nM |
| YXQGTXTSDXXIXLDXKAQXNFIEXLQEGGPSSGEPPPEGT (synthetic construct; SITE 2: note = 2-Aminoisobutyric Acid; SITE 6: note = alpha-methyl-2-fluoro-L-phenylalanine; SITE 10: note = 3-(4-Pyridyl)-L-alanine; SITE 11: note = alpha-methyl-L-serine; SITE 13: note = alpha-methyl-leucine; SITE 16: note = L-ornithine; SITE 17: note = Lysine is chemically mo) [Example 525] | 10 nM |
| YXQGTXTSDYSILLDKKAQXAFIEYLLEGGPSSGAPPPE (not fully specified; synthetic construct; SITE 2: note = 2-Aminoisobutyric Acid; SITE 6: note = alpha-methyl-2-fluoro-L-phenylalanine; SITE 17: note = Lysine is chemically modified through conjugation of the epsilon-amino group of the Lysine side chain with (2-[2-(2-Amino-ethoxy)-ethoxy]-acetyl)2-(gamma-Glu)-CO-(CH2 )18) [Example 386] | 1.7 nM |
| YXQGTXTSDXSIXLDKKAQXXFIEYLSEGGPSSGEPPPSGSEE (Aib, αMeF(2F), 4Pal, Orn; acylated lysine; amide; synthetic construct; SITE 2: note = 2-Aminoisobutyric Acid; SITE 6: note = alpha-methyl-2-fluoro-L-phenylalanine; SITE 10: note = 3-(4-Pyridyl)-L-alanine; SITE 13: note = alpha-methyl-leucine; SITE 17: note = Lysine is chemically modified through conjugation of the epsilon-amino group of the Lysine) [Example 637] | 11.7 nM |
| YXQGTFTSDFSRXLDKKAQXAFIEYLIEGGESSGAPPPSGS (synthetic construct; SITE 2: note = 2-Aminoisobutyric Acid; SITE 13: note = alpha-methyl-leucine; SITE 17: note = Lysine is chemically modified through conjugation of the epsilon-amino group of the Lysine side chain with (2-[2-(2-Amino-ethoxy)-ethoxy]-acetyl)-(gamma-Glu)-CO-(CH2) 16-CO2H; SITE 20: n) [Example 794] | 1.21 nM |
| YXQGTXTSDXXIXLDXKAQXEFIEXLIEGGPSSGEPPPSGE (non-natural residues; Lys acylated C18 diacid via AEEA-γGlu2; C-term amide; synthetic construct; SITE 2: note = 2-Aminoisobutyric Acid; SITE 6: note = alpha-methyl-2-fluoro-L-phenylalanine; SITE 10: note = 3-(4-Pyridyl)-L-alanine; SITE 11: note = alpha-methyl-L-serine; SITE 13: note = alpha-methyl-leucine; SITE 16: note = L-ornithine; SITE 17: note = Lysine is chemically mo) [Example 1177] | 4.23 nM |
| Y[Aib]QGTFTSDYSI[αMeL]LD[Orn]QAAK([AEEA-AEEA-γGlu-C20 diacid])QFVEWLLA[Aib]GPSSGEPPPSEG-NH2 [Example 328] | 10.3 nM |
| YXQGTFTSDXSQXLDKKAQXAFIEYLIEXGPSSGAPPPSGTE (non-natural residues; (γGlu)2-C18 diacid on Lys; C-terminal amide; synthetic construct; SITE 2: note = 2-Aminoisobutyric Acid; SITE 10: note = 3-(4-Pyridyl)-L-alanine; SITE 13: note = alpha-methyl-leucine; SITE 17: note = Lysine is chemically modified through conjugation of the epsilon-amino group of the Lysine side chain with (gamma-Glu)2-CO-(CH2)16-CO2H; SITE 20:) [Example 1126] | 3.92 nM |

// each listed binder needs a value for Relative cAMP EC50
1. YXQGTFTSDFSXXLDKKAQXAFIEYLLEAGPSSGHPPPSGS (synthetic construct; SITE 2: note = 2-Aminoisobutyric Acid; SITE 12: note = L-ornithine; SITE 13: note = alpha-methyl-leucine; SITE 17: note = Lysine is chemically modified through conjugation of the epsilon-amino group of the Lysine side chain with (2-[2-(2-Amino-ethoxy)-ethoxy]-acetyl)2-(gamma-Glu)) [Example 253]
2. YXQGTXTSDXSIXLDKKAQXAFIEYLEEGGPSSGAPPPE (synthetic construct; SITE 2: note = 2-Aminoisobutyric Acid; SITE 6: note = alpha-methyl-2-fluoro-L-phenylalanine; SITE 10: note = 3-(4-Pyridyl)-L-alanine; SITE 13: note = alpha-methyl-leucine; SITE 17: note = Lysine is chemically modified through conjugation of the epsilon-amino group of the Lysine) [Example 445]
3. YXQGTFTSDXXQXLDXKAQXQFIQXLIEGGPSSGEPPPSGGGE (not fully specified; non-natural residues, lipidated Lys, C-terminal amide; synthetic construct; SITE 2: note = 2-Aminoisobutyric Acid; SITE 10: note = 3-(4-Pyridyl)-L-alanine; SITE 11: note = alpha-methyl-L-serine; SITE 13: note = alpha-methyl-leucine; SITE 16: note = L-ornithine; SITE 17: note = Lysine is chemically modified through conjugation of the epsilon-amino group) [Example 1188]
4. YXQGTXTSDXXIXLDXKAQXEFIEXLIEGGPPSGEPPPEGE (non-natural residues; lipidated Lys AEEA-γGlu-C18 diacid; C-term amide; synthetic construct; SITE 2: note = 2-Aminoisobutyric Acid; SITE 6: note = alpha-methyl-2-fluoro-L-phenylalanine; SITE 10: note = 3-(4-Pyridyl)-L-alanine; SITE 11: note = alpha-methyl-L-serine; SITE 13: note = alpha-methyl-leucine; SITE 16: note = L-ornithine; SITE 17: note = Lysine is chemically mo) [Example 1191]
5. YXQGTFTSDXSXXLDKKAQXAFIEYLLEAGPSSGAPPPSGX (synthetic construct; SITE 2: note = 2-Aminoisobutyric Acid; SITE 10: note = 3-(4-Pyridyl)-L-alanine; SITE 12: note = L-ornithine; SITE 13: note = alpha-methyl-leucine; SITE 17: note = Lysine is chemically modified through conjugation of the epsilon-amino group of the Lysine side chain with (2-[2-(2-) [Example 274]
6. YXQGTFTSDXXQXLDXKAQXQFIQXLIEXGPSSGEPPPSGGGE (non-natural residues; lipidated Lys; C-terminal amide; synthetic construct; SITE 2: note = 2-Aminoisobutyric Acid; SITE 10: note = 3-(4-Pyridyl)-L-alanine; SITE 11: note = alpha-methyl-L-serine; SITE 13: note = alpha-methyl-leucine; SITE 16: note = L-ornithine; SITE 17: note = Lysine is chemically modified through conjugation of the epsilon-amino group) [Example 1183]
7. YXQGTXTSDXXIXLDXKAQXEFIEXLIEGGPSSGEPPPSGGGE (non-natural residues, AEEA-(γGlu)2-C18 diacid acyl on K, C-terminal amide; synthetic construct; SITE 2: note = 2-Aminoisobutyric Acid; SITE 6: note = alpha-methyl-2-fluoro-L-phenylalanine; SITE 10: note = 3-(4-Pyridyl)-L-alanine; SITE 11: note = alpha-methyl-L-serine; SITE 13: note = alpha-methyl-leucine; SITE 16: note = L-ornithine; SITE 17: note = Lysine is chemically mo) [Example 1181]
8. YXQGTXTSDXXIXLDXKAAXEFIEXLIEGGPSSGAPPPSGTEE (synthetic construct; SITE 2: note = 2-Aminoisobutyric Acid; SITE 6: note = alpha-methyl-2-fluoro-L-phenylalanine; SITE 10: note = 3-(4-Pyridyl)-L-alanine; SITE 11: note = alpha-methyl-L-serine; SITE 13: note = alpha-methyl-leucine; SITE 16: note = L-ornithine; SITE 17: note = Lysine is chemically mo) [Example 725]

-- reply
1. 6.62 nM
2. 10.1 nM
3. 1.16 nM
4. 3.06 nM
5. 9.37 nM
6. 1.38 nM
7. 3.34 nM
8. 1.49 nM

Hi! Can you tell me Relative cAMP EC50 for each of these binders?
1. YXQGTFTSDFSXXLDKKAQXAFIEWLLEXGSSSGAPPPSGT (synthetic construct; SITE 2: note = 2-Aminoisobutyric Acid; SITE 12: note = L-ornithine; SITE 13: note = alpha-methyl-leucine; SITE 17: note = Lysine is chemically modified through conjugation of the epsilon-amino group of the Lysine side chain with (2-[2-(2-Amino-ethoxy)-ethoxy]-acetyl)-(gamma-Glu)) [Example 264]
2. YXQGTFTSDFSKXLDKKAQXAFIEYLLEGGPSSGAPPPSGS (synthetic construct; SITE 2: note = 2-Aminoisobutyric Acid; SITE 13: note = alpha-methyl-leucine; SITE 17: note = Lysine is chemically modified through conjugation of the epsilon-amino group of the Lysine side chain with (2-[2-(2-Amino-ethoxy)-ethoxy]-acetyl)-(gamma-Glu)-CO-(CH2) 16-CO2H; SITE 20: n) [Example 141]
3. Y[Aib]QGT[αMePhe(2-F)]TSDYSILLDKAAQK[Orn]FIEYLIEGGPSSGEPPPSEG-NH2 (not fully specified (residue 20)) [Example 306]

-- reply
1: 6.29 nM; 2: 1.77 nM; 3: 5.8 nM

For each entry beneath this line, provide reported Relative cAMP EC50.
1. YXQGTXTSDXXIXLDXKAAXEFIEXLIEGGPSSGAPPPSGEE (synthetic construct; SITE 2: note = 2-Aminoisobutyric Acid; SITE 6: note = alpha-methyl-2-fluoro-L-phenylalanine; SITE 10: note = 3-(4-Pyridyl)-L-alanine; SITE 11: note = alpha-methyl-L-serine; SITE 13: note = alpha-methyl-leucine; SITE 16: note = L-ornithine; SITE 17: note = Lysine is chemically mo) [Example 703]
2. YXQGTXTSDYSIXLDKKAQXAFIEYLEEGGPSSGAPPPS (synthetic construct; SITE 2: note = 2-Aminoisobutyric Acid; SITE 6: note = alpha-methyl-2-fluoro-L-phenylalanine; SITE 13: note = alpha-methyl-leucine; SITE 17: note = Lysine is chemically modified through conjugation of the epsilon-amino group of the Lysine side chain with (2-[2-(2-Amino-ethoxy)-et)) [Example 421]

-- reply
1. 1.56 nM
2. 3.25 nM
